Data origin: PubChem BioAssay (NCI)

test system: IGROV1 ovarian; test: NCI-60 one-dose screen, 48 h (100 = growth as untreated, 0 = no growth, -100 = all killed); conditions: 10 µM
About 83,000 compounds went through this panel and 20% of them were active in at least one assay; those are over-represented in the sample as a whole.

# molecule, value units, growth
records = [
    ("c1cnc2[nH]cc(-c3nc(-c4ccsc4)cs3)c2c1", "%", 70.8),
    ("CCN(CC)CCCC(Nc1c2ccc(Cl)cc2nc2ccc(OC)cc12)c1ccc(F)cc1 (centres undefined)", "%", 41.5),
    ("Cc1cccc(N=Cc2ccccc2O)c1C", "%", 115),
    ("CC(C)(C)OC(=O)CN1CCc2c(sc3ncnc(N/N=C/c4cccc5ccccc45)c23)C1", "%", 30.1),
]

----------
system: SK-OV-3 ovarian; assay: NCI-60 one-dose screen, 48 h (100 = growth as untreated, 0 = no growth, -100 = all killed); details: 10 µM
The panel holds about 83,000 compounds, 20% with a hit somewhere; the sample as a whole holds those more often.
Below, each of the compounds is paired with its reported growth value.
experimental readout: growth (%)

# compound, tested target, experimental readout, recorded result
rows = [
    ("Cc1c(O)c(=O)ccn1C1CCC(CC2CCC(n3ccc(=O)c(O)c3C)CC2)CC1 (stereo not drawn)", "SK-OV-3 ovarian", "growth", 49.9),
    ("COc1ccc(-c2cc(-c3ccccc3)nc(SCCCCCCC(=O)NO)n2)cc1", "SK-OV-3 ovarian", "growth", 61.2),
    ("CCCCCOC(=O)Nc1nc(=O)n(C2O[C@H](C)[C@@H](O)[C@H]2O)cc1F (stereo partly drawn)", "SK-OV-3 ovarian", "growth", 93.4),
    ("COc1cccc(C2C(C#N)=C(N)Oc3cc(N)ccc32)c1 (stereo not drawn)", "SK-OV-3 ovarian", "growth", 48.9),
    ("COc1cc(C2C(C#N)=C(N)Oc3cc(O)ccc32)cc(OC)c1OC (stereo not drawn)", "SK-OV-3 ovarian", "growth", 44.2),
    ("O=C(CSc1nnc(-c2cccnc2SCc2ccccc2)o1)Nc1nc(Cl)cc(Cl)n1", "SK-OV-3 ovarian", "growth", 110),
    ("COc1ccc(/C=c2\\sc3n(c2=O)C(c2cc(OC)c(OC)c(OC)c2)C=C(c2ccc(OC)c(OC)c2)N=3)cc1OC (stereo not drawn)", "SK-OV-3 ovarian", "growth", 108),
    ("Cc1ccc(/C=C/C(=O)C(=O)/C=C/c2ccc(C)cc2)cc1", "SK-OV-3 ovarian", "growth", 109),
]

----------
test system: OVCAR-4 ovarian; assay: NCI-60 one-dose screen, 48 h (100 = growth as untreated, 0 = no growth, -100 = all killed); settings: 10 µM
About 83,000 compounds went through this panel and 20% of them were active in at least one assay; those are over-represented in the sample as a whole.
experimental readout: growth (%)

# compound, experimental readout, value units, recorded result
records = [
    ("CN1C(=O)C2(Nc3cc(Cl)ccc3S2)c2cc(Cl)ccc21 (centres undefined)", "growth", "%", 70.3),
    ("O=C(CCC(C(=O)c1ccccc1)c1ccccc1)c1ccccc1 (centres undefined)", "growth", "%", 91.2),
    ("C=CCn1c(SCC(=O)Nc2ccc(C(=O)/C=C/c3cc(OC)c(OC)c(OC)c3)cc2)nnc1-c1cc(-c2ccc(Cl)cc2)nc2ccccc12", "growth", "%", 87.9),
    ("O=[N+]([O-])c1ccc2ncccc2c1Cl", "growth", "%", 90.2),
]
